System: Enterococcus faecalis
Procedure Summary: Antibacterial activity against Streptococcus faecalis ATCC 14506 after 18 hrs by broth microdilution method
Format: functional
Condition Details: ATCC 14506, 18 h
Consider the cut-off 100 µg/mL. If the recorded MIC is strictly smaller, the label is y; if not, the label is n.

Would you please look over these solved cases?
Molecule	Study Target	Answer Label
Nn1c(-c2ccc(-n3cccc3)cc2)n[nH]c1=S	Enterococcus faecalis	n
O=C(N/N=C/c1cccc([N+](=O)[O-])c1)c1ccc(-n2cccc2)cc1	Enterococcus faecalis	n
CC(C)=NNC(=O)c1ccc(-n2cccc2)cc1	Enterococcus faecalis	n
Sc1nnc(-c2ccc(-n3cccc3)cc2)o1	Enterococcus faecalis	y
CN(C)c1ccc(/C=N/NC(=O)c2ccc(-n3cccc3)cc2)cc1	Enterococcus faecalis	n

Task: Is the reported MIC for O=C(N/N=C/c1ccccc1)c1ccc(-n2cccc2)cc1 strictly below 100 µg/mL?
Result: n

Task: Find out if reported MIC for Cc1ccc(C)n1NC(=O)c1ccc(-n2cccc2)cc1 is less than 100 µg/mL
Result: n

Task: Threshold test, MIC < 100 µg/mL: C/C(=N\NC(=O)c1ccc(-n2cccc2)cc1)c1ccccc1
Result: n
